- EXPERIMENT NOTES: Plasma pharmacokinetics of SU5416 and metabolites in Phase I patients (HPLC UV)
- Format: in vivo, human
- SETTINGS: human, plasma, iv, 65 mg m^−2, individual patients, twice weekly i.v. infusion, dose 65 mg m^−2, cycle 1inj8; read-out: Cmax
MEASUREMENT NAME: Cmax

Quick one: give measured Cmax for Cc1cc(C)c(/C=C2\C(=O)Nc3ccccc32)[nH]1 [SU5416] 4100 ng/mL

###

- EXPERIMENT NOTES: Plasma pharmacokinetics of SU5416 and metabolites in Phase I patients (HPLC UV)
- Assay type: in vivo, human
- SETTINGS: human, plasma, iv, 65 mg m^−2, individual patients, twice weekly i.v. infusion, dose 65 mg m^−2, cycle 1inj3; read-out: Cmax
MEASUREMENT NAME: Cmax (ng/mL)
Please reply with the bare figure in ng/mL and do not write the unit itself.

Quick one: give measured Cmax for Cc1cc(C)c(/C=C2\C(=O)Nc3ccccc32)[nH]1 [SU5416] 2070

###

- EXPERIMENT NOTES: Plasma pharmacokinetics of SU5416 and metabolites in Phase I patients (HPLC UV)
- Type: in vivo, human
- SETTINGS: human, plasma, iv, 48 mg m^−2, individual patients, twice weekly i.v. infusion, dose 48 mg m^−2, cycle 2inj8; read-out: T1/2λz (converted)
MEASUREMENT NAME: half-life (min)
Please reply with the bare figure in min and do not write the unit itself.

Quick one: give measured half-life for `Cc1cc(C)c(/C=C2\C(=O)Nc3ccccc32)[nH]1` 34.2

###

- EXPERIMENT NOTES: Plasma pharmacokinetics of SU5416 and metabolites in Phase I patients (HPLC UV)
- Format: in vivo, human
- SETTINGS: human, plasma, iv, 65 mg m^−2, individual patients, twice weekly i.v. infusion, dose 65 mg m^−2, cycle 1inj3; read-out: T1/2λz (converted)
- Protocol: Samples were taken prior to treatment infusion, 15 min into the infusion, at completion of the infusion and then at 5, 10, 20, 30, 45, 60, 120 and 240 min following the infusion. […] Pharmacokinetic analysis was performed using a fully validated HPLC UV method ([Stopeck et al, 2002]). […] Following centrifugation, drying and reconstitution in 200 μl mobile phase, 20 μl were analysed by HPLC UV. […] Pharmacokinetic parameters were evaluated using WinNonLin Software®.
MEASUREMENT NAME: half-life (min)
Please reply with the bare figure in min and do not write the unit itself.

Quick one: give measured half-life for Cc1cc(C)c(/C=C2\C(=O)Nc3ccccc32)[nH]1 [SU5416] 12

###

- EXPERIMENT NOTES: Plasma pharmacokinetics of SU5416 and metabolites in Phase I patients (HPLC UV)
- Format: in vivo, human
- SETTINGS: human, plasma, iv, 110 mg m^−2, individual patients, twice weekly i.v. infusion, dose 110 mg m^−2, cycle 1inj2; read-out: Cmax
MEASUREMENT NAME: Cmax (ng/mL)
Please reply with the bare figure in ng/mL and do not write the unit itself.

Quick one: give measured Cmax for Cc1cc(C)c(/C=C2\C(=O)Nc3ccccc32)[nH]1 [SU5416] 3510

###

- EXPERIMENT NOTES: Plasma pharmacokinetics of SU5416 and metabolites in Phase I patients (HPLC UV)
- Format: in vivo, human
- SETTINGS: human, in vivo, iv, individual patients, twice weekly i.v. infusion, dose 145 → 190 mg m^−2, cycle 2inj8; read-out: Cmax
MEASUREMENT NAME: Cmax (ng/mL)
Please reply with the bare figure in ng/mL and do not write the unit itself.

Quick one: give measured Cmax for `Cc1cc(C)c(/C=C2\C(=O)Nc3ccccc32)[nH]1` 3340

Entry source: paper PMC2361651
